Listing of recorded pIC50 by entry.
# ASSAY TARGET: T1, human DLL4, full length, on cells (human, UniProt Q9NR61 27-685)
# T1 construct: also called huDLL4 cells; human DLL4-293G
# T1 sequence (Q9NR61 27-685 limits assumed): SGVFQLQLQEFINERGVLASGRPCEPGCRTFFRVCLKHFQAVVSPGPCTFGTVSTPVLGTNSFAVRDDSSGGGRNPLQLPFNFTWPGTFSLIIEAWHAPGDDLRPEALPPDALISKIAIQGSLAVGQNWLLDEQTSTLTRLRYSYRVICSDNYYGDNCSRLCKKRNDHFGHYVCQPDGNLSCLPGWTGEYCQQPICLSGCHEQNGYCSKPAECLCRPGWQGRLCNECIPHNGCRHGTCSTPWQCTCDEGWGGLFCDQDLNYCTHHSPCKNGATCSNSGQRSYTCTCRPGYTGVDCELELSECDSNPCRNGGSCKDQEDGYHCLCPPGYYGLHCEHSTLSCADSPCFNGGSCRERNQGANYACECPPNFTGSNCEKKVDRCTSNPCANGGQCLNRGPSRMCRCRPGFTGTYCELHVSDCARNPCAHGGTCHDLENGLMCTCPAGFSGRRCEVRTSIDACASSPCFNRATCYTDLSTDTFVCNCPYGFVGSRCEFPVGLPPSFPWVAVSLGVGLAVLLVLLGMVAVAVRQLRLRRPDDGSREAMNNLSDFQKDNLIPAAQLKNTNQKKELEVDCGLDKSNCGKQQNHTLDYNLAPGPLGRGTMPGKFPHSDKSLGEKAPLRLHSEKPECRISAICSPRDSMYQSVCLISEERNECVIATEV
# EXPERIMENT SUMMARY: competition FACS: huNotch-1-biotin to DLL4 cells
pIC50: −log10 of the molar value.
ASSAY READOUT: pIC50

>>> observed("37D10 rat anti-DLL4 monoclonal antibody (antibody, rat IgG2a, V domains shown, rat IgG2a/k hybridoma mAb; also called 40B10; 37D10 = 40B10) VH: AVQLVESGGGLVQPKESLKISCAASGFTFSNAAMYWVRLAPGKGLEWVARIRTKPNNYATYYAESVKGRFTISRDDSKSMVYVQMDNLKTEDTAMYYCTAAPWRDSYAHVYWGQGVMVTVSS VL: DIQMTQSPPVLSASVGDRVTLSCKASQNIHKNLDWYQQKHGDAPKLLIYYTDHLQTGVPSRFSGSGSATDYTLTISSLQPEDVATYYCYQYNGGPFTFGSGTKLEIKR")
8.26
>>> observed("38H12 rat anti-DLL4 monoclonal antibody (antibody, rat IgG2a, V domains shown, rat IgG2a/k hybridoma mAb; also called MC10-38H12.2G8; 38H12 rat mAb) VH: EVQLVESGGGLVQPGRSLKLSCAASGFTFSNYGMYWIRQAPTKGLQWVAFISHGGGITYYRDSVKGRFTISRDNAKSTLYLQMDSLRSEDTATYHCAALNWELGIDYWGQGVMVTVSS VL: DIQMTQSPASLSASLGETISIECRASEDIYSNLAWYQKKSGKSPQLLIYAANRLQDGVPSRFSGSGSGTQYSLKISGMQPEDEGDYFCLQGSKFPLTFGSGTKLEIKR")
8.77
>>> observed("14G1 rat anti-DLL4 monoclonal antibody (antibody, rat IgG2a, V domains shown, rat IgG2a/K hybridoma mAb; also called MC13-14G1.1B4) VH: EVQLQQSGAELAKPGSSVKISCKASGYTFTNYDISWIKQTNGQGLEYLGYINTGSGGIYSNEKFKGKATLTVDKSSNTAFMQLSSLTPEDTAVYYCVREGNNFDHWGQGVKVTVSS VL: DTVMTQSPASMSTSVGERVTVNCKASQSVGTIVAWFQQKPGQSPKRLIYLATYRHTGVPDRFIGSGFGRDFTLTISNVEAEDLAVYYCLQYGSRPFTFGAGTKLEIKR")
8.38

Where do the numbers come from? From patent US20110217237A1.
